assay: In-vivo pharmacokinetic studies; settings: read-out: half life (T1/2) (converted)
Readout type: half-life

1) O=C1NC(=O)C(=Cc2cn(CCCCCCn3c4ccccc4c(=O)c4ccccc43)c3ccccc23)C(=O)N1 [Compound 1]
~9 h

====

assay: In-vivo pharmacokinetic studies; conditions: Animal 3
Readout type: Tmax (min)

1) O=C1NC(=O)C(=Cc2cn(CCCCCCn3c4ccccc4c(=O)c4ccccc43)c3ccccc23)C(=O)N1
30

====

Quick list: IC50 per entry.
Target: COX-1 (Ovis aries)
Construct: purchased Cayman Chemical Co. item no; 560131
Sequence (P05979 25-600): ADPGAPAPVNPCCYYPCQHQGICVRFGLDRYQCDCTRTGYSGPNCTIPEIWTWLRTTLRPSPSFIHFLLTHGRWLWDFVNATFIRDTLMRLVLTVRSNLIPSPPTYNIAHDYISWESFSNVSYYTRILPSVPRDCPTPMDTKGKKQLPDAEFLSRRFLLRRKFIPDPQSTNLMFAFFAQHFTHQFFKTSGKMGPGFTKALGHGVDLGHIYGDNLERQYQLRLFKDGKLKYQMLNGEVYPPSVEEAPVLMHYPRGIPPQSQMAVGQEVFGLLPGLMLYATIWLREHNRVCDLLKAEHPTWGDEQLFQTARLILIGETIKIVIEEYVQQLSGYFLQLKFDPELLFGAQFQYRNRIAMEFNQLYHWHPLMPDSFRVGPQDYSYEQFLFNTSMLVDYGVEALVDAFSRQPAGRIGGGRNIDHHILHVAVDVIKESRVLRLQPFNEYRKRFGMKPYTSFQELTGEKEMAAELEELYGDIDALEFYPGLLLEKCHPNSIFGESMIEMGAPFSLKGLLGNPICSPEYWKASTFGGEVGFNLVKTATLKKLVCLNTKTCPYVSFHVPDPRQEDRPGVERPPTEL
Experiment: COX inhibitory enzyme immunoassay (COX-1)
Format: biochemical
Method: All the compounds of Fig. 9 were screened for COX-1/2 inhibitory activity in triplicate at 10^–4–10^–8 M concentration by performing enzyme immunoassays. The activity of the compounds was quantified in terms of amount of prostaglandins produced by the enzymes in the presence of different concentrations of the compound. For studying the COX-1, COX-2 inhibitory activities of the compounds, various reagents were prepared as per the protocol of the assays. […]
Readout type: IC50 (µM)

1. O=C1NC(=O)C(=Cc2cn(CCCCCCn3c4ccccc4c(=O)c4ccccc43)c3ccccc23)C(=O)N1
60
2. CN1C(=O)C(=Cc2cn(CCCCCCn3c4ccccc4c(=O)c4ccccc43)c3ccccc23)C(=O)N(C)C1=O
33
3. O=C1NC(=O)C(=Cc2cn(CCCCCn3c4ccccc4c(=O)c4ccccc43)c3ccccc23)C(=O)N1
40

====

Quick list: IC50 per entry.
Biological target: COX-1 (Ovis aries, UniProt P05979)
Construct: purchased Cayman Chemical Co. item no; 560131
Sequence (P05979 25-600): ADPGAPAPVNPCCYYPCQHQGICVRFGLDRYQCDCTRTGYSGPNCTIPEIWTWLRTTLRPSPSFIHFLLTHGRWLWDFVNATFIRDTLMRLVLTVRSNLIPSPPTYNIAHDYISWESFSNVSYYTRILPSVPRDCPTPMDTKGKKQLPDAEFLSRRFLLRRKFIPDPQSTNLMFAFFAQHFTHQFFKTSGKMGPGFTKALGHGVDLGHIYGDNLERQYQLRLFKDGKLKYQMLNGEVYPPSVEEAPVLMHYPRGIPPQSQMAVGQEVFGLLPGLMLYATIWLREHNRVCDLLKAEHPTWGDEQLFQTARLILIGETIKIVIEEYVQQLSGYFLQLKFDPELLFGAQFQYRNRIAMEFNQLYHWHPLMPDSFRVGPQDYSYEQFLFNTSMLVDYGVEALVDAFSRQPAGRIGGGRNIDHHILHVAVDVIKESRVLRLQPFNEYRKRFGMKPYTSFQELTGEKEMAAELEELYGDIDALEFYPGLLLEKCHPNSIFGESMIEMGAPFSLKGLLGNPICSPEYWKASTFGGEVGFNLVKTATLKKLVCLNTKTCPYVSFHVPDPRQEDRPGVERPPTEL
Test: COX inhibitory enzyme immunoassay (COX-1)
Assay type: biochemical
Details: enzyme immunoassay, screened at 10^–4–10^–8 M; average of 3 experiments, SD ± 0.5 µM; read-out: IC50 COX-1
Readout type: IC50

1. Cn1cc(/C=C2\C(=O)N(CCCn3c4ccccc4c(=O)c4ccccc43)c3ccccc32)c2ccccc21
> 100 µM
2. O=c1c2ccccc2n(CCCCCCBr)c2ccccc12 [Compound 13d, 10-(6-Bromohexyl)acridin-9(10H)-one]
> 100 µM
3. COc1cc(/C=C2\C(=O)N(CCCn3c4ccccc4c(=O)c4ccccc43)c3ccccc32)cc(OC)c1O
> 100 µM
